Data credit: BigSolDB 2.1

# assay-context: in ethanol, 278.15 K
readout-label: solubility (mole fraction)

                                   molecule               readout_label   result
0  COC(=O)C1=C(C)NC(C)=C(C(=O)OCC(C)C)C1c1ccccc1[N+](=O)[O-] (stereo unspecified)  solubility (mole fraction)  0.00278

---

# assay-context: in ethyl acetate, 318.15 K
readout-label: solubility (mole fraction)

                                   molecule  result
0  COC(=O)C1=C(C)NC(C)=C(C(=O)OCC(C)C)C1c1ccccc1[N+](=O)[O-] (stereo unspecified)  0.0457
